# tested_target: T1, human EpCAM (epithelial cell adhesion/activating molecule) (human, UniProt P16422 24-314)
# T1 sequence: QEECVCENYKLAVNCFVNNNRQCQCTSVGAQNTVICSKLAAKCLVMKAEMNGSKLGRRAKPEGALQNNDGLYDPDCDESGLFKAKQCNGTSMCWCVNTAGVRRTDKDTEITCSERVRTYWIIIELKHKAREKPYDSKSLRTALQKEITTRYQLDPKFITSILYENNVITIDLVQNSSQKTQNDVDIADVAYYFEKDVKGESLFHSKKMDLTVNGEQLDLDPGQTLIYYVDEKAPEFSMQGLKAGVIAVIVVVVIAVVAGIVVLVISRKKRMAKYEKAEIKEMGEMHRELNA
# test_summary: cell-based or functional assay
reported_property: % Annexin V/PI-positive cells, LNCaP, 1.0 µg/ml mAb (%)
Answers are plain numbers, in %.

Here is how some binders turned out for % Annexin V/PI-positive cells, LNCaP, 1.0 µg/ml mAb.
murine monoclonal antibody 4D2 (antibody, mouse IgG1, V domains shown, Mouse IgG1, kappa, from hybridoma; also called m338-4D2.20) VH: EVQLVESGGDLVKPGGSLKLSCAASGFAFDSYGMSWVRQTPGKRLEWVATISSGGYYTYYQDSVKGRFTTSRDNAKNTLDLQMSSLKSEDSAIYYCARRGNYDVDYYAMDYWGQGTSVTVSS VL: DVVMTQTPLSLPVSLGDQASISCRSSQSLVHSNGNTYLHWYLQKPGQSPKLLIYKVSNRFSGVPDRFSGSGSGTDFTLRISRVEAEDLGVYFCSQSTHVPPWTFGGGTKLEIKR
49
murine monoclonal antibody 2D11 (antibody, mouse IgG1, V domains shown, Mouse IgG1, kappa, from hybridoma; also called m322-2D11.19) VH: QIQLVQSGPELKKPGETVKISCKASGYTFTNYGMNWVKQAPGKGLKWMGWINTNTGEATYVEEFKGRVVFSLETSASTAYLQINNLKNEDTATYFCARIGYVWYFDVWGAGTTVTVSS VL: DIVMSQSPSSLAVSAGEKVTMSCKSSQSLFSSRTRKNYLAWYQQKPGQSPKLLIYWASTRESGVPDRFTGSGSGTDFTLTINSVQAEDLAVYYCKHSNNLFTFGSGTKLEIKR
40

# context switch: different binder, same % Annexin V/PI-positive cells, LNCaP, 1.0 µg/ml mAb
query: Identify % Annexin V/PI-positive cells, LNCaP, 1.0 µg/ml mAb associated with the binder murine monoclonal antibody 6D11 (antibody, mouse IgG1, V domains shown, Mouse IgG1, kappa, from hybridoma; also called m338-6D11.8) VH: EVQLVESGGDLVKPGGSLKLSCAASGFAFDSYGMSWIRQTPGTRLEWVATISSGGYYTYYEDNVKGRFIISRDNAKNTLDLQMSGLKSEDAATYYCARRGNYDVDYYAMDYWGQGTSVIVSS VL: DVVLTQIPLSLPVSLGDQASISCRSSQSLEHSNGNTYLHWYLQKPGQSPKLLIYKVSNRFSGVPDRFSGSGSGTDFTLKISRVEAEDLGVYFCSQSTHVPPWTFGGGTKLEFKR
result: 38
